Biological target: CDK4/cyclin D3 (Homo sapiens, UniProt P11802)
Sequence (P11802 whole entry): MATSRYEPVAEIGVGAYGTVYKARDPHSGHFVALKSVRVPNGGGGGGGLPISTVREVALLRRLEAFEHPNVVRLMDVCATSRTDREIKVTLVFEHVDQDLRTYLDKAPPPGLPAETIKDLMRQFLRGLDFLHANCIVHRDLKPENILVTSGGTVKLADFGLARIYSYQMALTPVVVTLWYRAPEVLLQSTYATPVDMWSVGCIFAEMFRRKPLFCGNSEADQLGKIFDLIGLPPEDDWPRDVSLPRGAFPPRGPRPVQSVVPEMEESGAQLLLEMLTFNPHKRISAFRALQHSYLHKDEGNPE
Sequence (P30281 whole entry partner): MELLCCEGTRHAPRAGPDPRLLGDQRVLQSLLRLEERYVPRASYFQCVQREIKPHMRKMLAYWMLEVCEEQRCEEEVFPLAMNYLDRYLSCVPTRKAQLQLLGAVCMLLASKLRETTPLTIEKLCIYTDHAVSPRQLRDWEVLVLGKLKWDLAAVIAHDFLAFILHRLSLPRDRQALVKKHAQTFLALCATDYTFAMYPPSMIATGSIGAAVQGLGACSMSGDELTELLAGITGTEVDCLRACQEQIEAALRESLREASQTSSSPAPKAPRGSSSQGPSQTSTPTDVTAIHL
Test: Human CDK4/cyclin D3 inhibitory activity (QS S Assist CDK4/Cyclin D3_FP Kit, IMAP fluorescent polarization)
Details: read-out: CDK4 Activity symbol

compound	IC50
C[C@@H](O)c1cc2cnc(Nc3ccc(C(=O)N4CCN(C)CC4)cn3)nc2c(N2CCCCC2)n1 [Compound 309]	< 10 nM
C[C@@H](O)c1cc2cnc(Nc3ccc(N4CCNCC4=O)cn3)nc2c(N2C3CCCC2CC3)n1 [Compound 281]	< 10 nM
c1cc(N2CCNCC2)nnc1Nc1ncc2cc(C3COC3)nc(N3CCCCC3)c2n1 [Compound 277]	10 to 100 nM
FC(F)c1cc2cnc(Nc3ccc(N4CCNCC4)cn3)nc2c(-c2ccccc2)n1 [Compound 12]	< 10 nM
C[C@@H](O)c1cc2cnc(Nc3ccc(N4CCNCC4=O)cn3)nc2c(N2CCC2)n1 [Compound 50]	10 to 100 nM
C[C@@H](O)c1cc2cnc(Nc3ccc4c(n3)CCN(C(=O)[C@@H]3CCCCN3C)C4)nc2c(N2C3CCC2CC3)n1 [Compound 237]	< 10 nM
CC(O)c1cc2cnc(Nc3ccc4c(n3)CC3CCC4N3CCO)nc2c(N2CCCCC2)n1 (stereo not drawn) [Compound 280]	10 to 100 nM
NC(=O)c1cc2cnc(Nc3ccc(N4CCNCC4)cn3)nc2c(N2CCCCC2)n1 [Compound 28]	10 to 100 nM
C[C@@H](O)c1cc2cnc(Nc3ccc(OC4CCN(CCO)CC4)cn3)nc2c(N2CC[C@@H](F)C2)n1 [Compound 219]	< 10 nM
C[C@@H]1CCN(c2nc([C@@H](C)O)cc3cnc(Nc4ccc(CN5CCN(C)CC5)cn4)nc23)C1 [Compound 138]	< 10 nM
c1cc(Nc2ncc3cc(C4CCOC4)nc(N4C5CCC4CC5)c3n2)ncc1CN1CCNCC1 (stereo not drawn) [Compound 205]	< 10 nM
C[C@@H](O)c1cc2cnc(Nc3ccc4c(n3)CCN(C(=O)CN3CC5(CN(C)C5)C3)C4)nc2c(N2C3CCC2CC3)n1 [Compound 265]	< 10 nM
C[C@@H](O)c1cc2cnc(Nc3ccc(C(=O)N4CC[C@@H](N(C)C)C4)cn3)nc2c(N2CCCCC2)n1 [Compound 312]	< 10 nM
Cc1nc(Nc2ncc3cc([C@@H](C)O)nc(N4CCCC4)c3n2)ccc1N1CCN(C)CC1 [Compound 53]	< 10 nM
C[C@H](CO)c1cc2cnc(Nc3ccc4c(n3)CCN(CCO)C4)nc2c(N2CCCCC2)n1 [Compound 193]	10 to 100 nM
